# Tested on: UEA-1 binding sites on Caco-2 cell membrane preparations
# assayText: Two tier competition assay: compound incubated alone with membranes, biotinylated UEA-1 added in next step
# Parameters: species or system human
# conditionInfo: Table 8, galloyl constructs; read-out: IC 50 (uM) 2nd tier
Non-standard residues stand in square brackets, D forms with d. Residues, ends and D or L forms follow the SMILES beside them. *: point of attachment. Galloyl = O=C(c1cc(O)c(O)c(O)c1)*; Orn = NCCC[CH](N)C(=O)O
IC50 values for the compounds below.

| compound | IC50 |
| --- | --- |
| CC(=O)NC(CCCNC(=O)c1cc(O)c(O)c(O)c1)C(=O)NC(CCCNC(=O)c1cc(O)c(O)c(O)c1)C(=O)NC(CCCNC(=O)c1cc(O)c(O)c(O)c1)C(N)=O (stereo not shown) | 2 µM |
| CC(=O)NC(Cc1ccc(NC(=O)c2cc(O)c(O)c(O)c2)cc1)C(=O)NC(Cc1ccc(NC(=O)c2cc(O)c(O)c(O)c2)cc1)C(=O)NC(Cc1ccc(NC(=O)c2cc(O)c(O)c(O)c2)cc1)C(N)=O (stereo not shown) | 6 µM |
| CC(=O)N[C@H](CCCCNC(=O)c1cc(O)c(O)c(O)c1)C(=O)N[C@H](CCCCNC(=O)c1cc(O)c(O)c(O)c1)C(=O)N[C@H](CCCCNC(=O)c1cc(O)c(O)c(O)c1)C(=O)N[C@H](CCCCNC(=O)c1cc(O)c(O)c(O)c1)C(=O)N[C@H](CCCCNC(=O)c1cc(O)c(O)c(O)c1)C(N)=O [MSI 30 #8] (Ac-[dK](Galloyl)[dK](Galloyl)[dK](Galloyl)[dK](Galloyl)[dK](Galloyl)-NH2) | 10 µM |
| CC(=O)NC(CCCNC(=O)c1cc(O)c(O)c(O)c1)C(=O)NC(CCCNC(=O)c1cc(O)c(O)c(O)c1)C(=O)NC(CCCNC(=O)c1cc(O)c(O)c(O)c1)C(=O)NC(CCCNC(=O)c1cc(O)c(O)c(O)c1)C(N)=O (stereo not shown) [MSI 34 #23] (Ac-[Orn](Galloyl)[Orn](Galloyl)[Orn](Galloyl)[Orn](Galloyl)-NH2; configuration not given here) | 1 µM |
| NC(=O)C(Cc1ccc(NC(=O)c2cc(O)c(O)c(O)c2)cc1)NC(=O)C(Cc1ccc(NC(=O)c2cc(O)c(O)c(O)c2)cc1)NC(=O)C(Cc1ccc(NC(=O)c2cc(O)c(O)c(O)c2)cc1)NC(=O)c1cc(O)c(O)c(O)c1 (stereo not shown) | 5 µM |
| NC(=O)C(CCCNC(=O)C(CCCNC(=O)c1cc(O)c(O)c(O)c1)NC(=O)c1cc(O)c(O)c(O)c1)NC(=O)C(CCCNC(=O)c1cc(O)c(O)c(O)c1)NC(=O)c1cc(O)c(O)c(O)c1 (stereo not shown) | 1 µM |
| NC(=O)[C@@H](CCCCNC(=O)c1cc(O)c(O)c(O)c1)NC(=O)[C@@H](CCCCNC(=O)c1cc(O)c(O)c(O)c1)NC(=O)[C@@H](CCCCNC(=O)c1cc(O)c(O)c(O)c1)NC(=O)[C@@H](CCCCNC(=O)c1cc(O)c(O)c(O)c1)NC(=O)[C@@H](CCCCNC(=O)c1cc(O)c(O)c(O)c1)NC(=O)c1cc(O)c(O)c(O)c1 [MSI 30 #10] (Galloyl-[dK](Galloyl)[dK](Galloyl)[dK](Galloyl)[dK](Galloyl)[dK](Galloyl)-NH2) | 3 µM |
